Values compiled from patent US20260041620A1.

- ASSAY_TARGET: MAGL (Homo sapiens)
- Construct: purchased Cayman 10007812
- Sequence (Q99685 whole entry): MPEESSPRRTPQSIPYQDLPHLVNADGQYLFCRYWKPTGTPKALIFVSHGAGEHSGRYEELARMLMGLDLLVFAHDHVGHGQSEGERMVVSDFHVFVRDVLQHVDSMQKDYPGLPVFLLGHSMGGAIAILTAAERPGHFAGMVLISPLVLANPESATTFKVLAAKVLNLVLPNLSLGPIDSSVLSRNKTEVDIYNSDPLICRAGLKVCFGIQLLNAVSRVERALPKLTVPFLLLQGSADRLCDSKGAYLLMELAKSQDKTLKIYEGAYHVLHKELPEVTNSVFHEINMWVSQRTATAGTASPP
- PROTOCOL_DETAILS: MAGL inhibitory assay
- Type: biochemical
PARAMETER: MAGL IC50 (µg/mL)
Give the number; µg/mL is assumed, so skip it.

Before answering, review these 3 worked examples.
MOLECULE	UNIT_ABBREV	MAGL IC50
CCCC(=O)NCCCCC(NC(=O)CCC)C(=O)[O-].CCCC(=O)NCCCCC(NC(=O)CCC)C(=O)[O-].[Ca+2] (centres unmarked) [Ca di-(di-n-butyryl lysinate), calcium di-(di-n-butyryl lysinate)]	µg/mL	37.6
CCCC(=O)NCCCC[C@H](NC(=O)CCC)C(=O)[O-].CCCC(=O)NCCCC[C@H](NC(=O)CCC)C(=O)[O-].[Mg+2] [Mg di-(di-n-butyryl lysinate), magnesium di-(di-n-butyryl lysinate)]	µg/mL	101
CCCC(=O)N[C@@H](CC(C)C)C(=O)[O-].CCCC(=O)N[C@@H](CC(C)C)C(=O)[O-].[Zn+2] [Zn di-(n-butyryl leucinate), Zinc di-(n-butyryl leucinate)]	µg/mL	88.3

In the following, a different molecule is considered.
Give recorded MAGL IC50 with MAGL (Homo sapiens) for the following molecule: CCCC(=O)NCCCC[C@H](NC(=O)CCC)C(=O)[O-].CCCC(=O)NCCCC[C@H](NC(=O)CCC)C(=O)[O-].[Zn+2] [Zn di-(di-n-butyryl lysinate), Zinc di-(di-n-butyryl lysinate)]
88.8
